Sourced from the supplement of paper PMC7125110

B1: glmS ribozyme (parent)
chain: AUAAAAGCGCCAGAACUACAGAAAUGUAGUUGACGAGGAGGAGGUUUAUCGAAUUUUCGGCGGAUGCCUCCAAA

Variants of: B1
experimentalDetails: self-cleavage kobs at 640 uM GlcN6P; higher = faster cleavage; RNA array
testSettings: with glucosamine-6-phosphate
Variants at the floor of the assay were thinned out.
Below, each of the variants is paired with its reported self-cleavage kobs at 640 uM GlcN6P value.
Response body: numeric value in s⁻¹, unit text excluded.

Reference set, count: 10
1) A52G U69C	0.000215
2) C50G G59U C68G	0.000101
3) G37A U46A	2.37e-05
4) C11U U56A	0.000294
5) A12U G40U U45G	0.000743
6) U30A U31C	0.000754
7) C50A C67U C68U	6.87e-05
8) G40A U54A	0.000502
9) A12C U46C	0.000606
10) G41C U46G U54C C70G	0.00305

Entry U30G U46A G66C , self-cleavage kobs at 640 uM GlcN6P reported as 6.55e-05

Entry A39U A53C U55C , self-cleavage kobs at 640 uM GlcN6P reported as 0.000547

Entry C11U U30G U31C , self-cleavage kobs at 640 uM GlcN6P reported as 9.28e-05

Entry G21U G26U U65G G66U U69G , self-cleavage kobs at 640 uM GlcN6P reported as 0.000207
